Tested on: Renilla luciferase RNA
Assay: Barcoded aptazyme variant library screen: un-cleaved Renilla luciferase RNA by barcode read counts, HEK293-T cells
Type: cell-based
Conditions: un-cleaved Renilla luciferase RNA, HEK293-T cells cultured with 1 mM theophylline (ON) over without theophylline (OFF); barcode read counts, triplicate
Field: Fold change in RNA expression between the ON state and the OFF state. Provide a value for each of the molecules that follow.
Numbers only, in fold.

RA220 (nucleic acid, expressed or natural sequence) DNA: GCCGAGAATACCAGCATCGTCTTGATGCCCTTGGAAGTCTCGGCGTCCTGGATTCGCGGAAACGCGTACATCCAGCTGACGAGTCCCAAATAGGACGAAACGCGC
1.2
RA162 (nucleic acid, expressed or natural sequence) DNA: GCGCGTCCTGGATTCGCGGAAACGCGTACATCCAGCTGACGAGTCCCAAATAGGGGAATACCAGCATCGTCTTGATGCCCTTGGAAGTCCACGAAACGCGC
1.3
RA086 (nucleic acid, expressed or natural sequence) DNA: GCGCGTCCTGGATTCGCGGAAACGCGGAATACCAGCATCGTCTTGATGCCCTTGGAAGTCCGCGTACATCCAGCTGACGAGTCCCAAATAGGACGAAACGCGC
1.7
RA270 (nucleic acid, expressed or natural sequence) DNA: GCGCGTCCTGGATTCGCGGAAACGCGTACATCCAGCTGACGAGTCCCAAATAGGACGAAGAATACCAGCATCGTCTTGATGCCCTTGGAAGTCTAACGCGC
1.0
RA297 (nucleic acid, expressed or natural sequence) DNA: GCGCGGGAATACCAGCATCGTCTTGATGCCCTTGGAAGTCCTCCTGGATTCGCGGAAACGCGTACATCCAGCTGACGAGTCCCAAATAGGACGAAACGCGC
1.0

Could you report Fold change in RNA expression between the ON state and the OFF state for every entry in the following list?
1. RA116 (nucleic acid, expressed or natural sequence) DNA: GCGCGTCCTGGATTCGCGGAAACGCGTACATCCAGCTGACGAGTCCCAAATAGGGAGAATACCAGCATCGTCTTGATGCCCTTGGAAGTCTCACGAAACGCGC
2. RA093 (nucleic acid, expressed or natural sequence) DNA: AGTGATACCAGCATCGTCTTGATGCCCTTGGCAGCACTGCGCGTCCTGGATTCGCGGAAACGCGTACATCCAGCTGACGAGTCCCAAATAGGACGAAACGCGC

1. 1.5
2. 1.6
